Sourced from ChEMBL document CHEMBL3763156

Assay: Cytotoxicity against MDCK cells assessed as cell viability after 48 hrs by MTT assay
Assay type: cell-based, Canis lupus familiaris
Conditions: dog
Binary call on CC50 at 48 h with cut-off 80 µM: strictly below means Satisfied, and equality or higher means Not satisfied.

Sample answers from the record:
[[record]]
smiles_input = "C[C@@H]1[C@H]2C[C@@H](C[C@H]1NCc1[nH]cnc1C1CC1)C2(C)C"
category = "Not satisfied"

[[record]]
smiles_input = "CC(C)c1ncc(CN[C@@H]2C[C@@H]3C[C@H]([C@H]2C)C3(C)C)[nH]1"
category = "Not satisfied"

[[record]]
smiles_input = "CC(C)Cc1ncc(CN[C@@H]2C[C@@H]3C[C@H]([C@H]2C)C3(C)C)[nH]1"
category = "Satisfied"

[[record]]
smiles_input = "CCc1nc[nH]c1CN[C@@H]1C[C@@H]2C[C@H]([C@H]1C)C2(C)C"
category = "Not satisfied"

[[record]]
smiles_input = "Cc1nc[nH]c1CN[C@@H]1C[C@@H]2C[C@H]([C@H]1C)C2(C)C"
category = "Not satisfied"


[ask] Say whether its CC50 at 48 h is strictly beneath 80 µM. Entry: `CCc1nc(C)c(CN[C@@H]2C[C@@H]3C[C@H]([C@H]2C)C3(C)C)[nH]1`
[reply] Not satisfied

[ask] Quick one: `C[C@@H]1[C@H]2C[C@@H](C[C@H]1NCc1cnc(C3CCCC3)[nH]1)C2(C)C`
[reply] Satisfied

[ask] Now consider `Cc1ncc(CN[C@@H]2C[C@@H]3C[C@H]([C@H]2C)C3(C)C)[nH]1` and answer again.
[reply] Not satisfied

[ask] Param item: `C[C@@H]1[C@H]2C[C@@H](C[C@H]1NCc1cnc(C(C)(C)C)[nH]1)C2(C)C`
[reply] Not satisfied

[ask] And the next one, `C[C@@H]1[C@H]2C[C@@H](C[C@H]1NCc1[nH]cnc1C(C)(C)C)C2(C)C` ?
[reply] Satisfied

[ask] And the next one, `C[C@@H]1[C@H]2C[C@@H](C[C@H]1NCc1cnc(-c3cccs3)[nH]1)C2(C)C` ?
[reply] Satisfied

[ask] Subsequent entry: `CCCCc1ncc(CN[C@@H]2C[C@@H]3C[C@H]([C@H]2C)C3(C)C)[nH]1`
[reply] Satisfied

[ask] Now give it for `Cc1nc(C2CC2)[nH]c1CN[C@@H]1C[C@@H]2C[C@H]([C@H]1C)C2(C)C` too.
[reply] Satisfied

[ask] Would you mind doing `CCCc1nc(C2CC2)[nH]c1CN[C@@H]1C[C@@H]2C[C@H]([C@H]1C)C2(C)C` as well?
[reply] Not satisfied

[ask] Same lookup for `C[C@@H]1[C@H]2C[C@@H](C[C@H]1NCc1cnc(C3CCCCC3)[nH]1)C2(C)C` , please.
[reply] Satisfied

[ask] Here is the next compound: `Cc1nc(C(C)C)[nH]c1CN[C@@H]1C[C@@H]2C[C@H]([C@H]1C)C2(C)C`
[reply] Satisfied

[ask] Again, but for `CCCc1nc(C(C)C)[nH]c1CN[C@@H]1C[C@@H]2C[C@H]([C@H]1C)C2(C)C`
[reply] Not satisfied

[ask] Moving on to the next compound: `CCCc1nc[nH]c1CN[C@@H]1C[C@@H]2C[C@H]([C@H]1C)C2(C)C`
[reply] Not satisfied

[ask] Let us now turn to `CCCc1nc(-c2ccccc2)[nH]c1CN[C@@H]1C[C@@H]2C[C@H]([C@H]1C)C2(C)C`
[reply] Not satisfied

[ask] // next record `C[C@@H]1[C@H]2C[C@@H](C[C@H]1NCc1[nH]cnc1-c1ccccc1)C2(C)C`
[reply] Satisfied

[ask] Now this one: `CCc1ncc(CN[C@@H]2C[C@@H]3C[C@H]([C@H]2C)C3(C)C)[nH]1`
[reply] Not satisfied

[ask] Can you check `C[C@@H]1[C@H]2C[C@@H](C[C@H]1NCc1cnc(C3CC3)[nH]1)C2(C)C` next?
[reply] Not satisfied
